Listing of entries alongside the reported melting point.

Examples with their reported melting point follow.
> print(dat)
                                   molecule   result.value
1  C[C@@H]1C[C@H](C)CN(C(=O)[C@@H]2Cc3ccccc3N2c2nccs2)C1  172 to 174 °C
2  O=C(Cc1ccc(Cl)cc1)Nc1cc(CC2SC(=O)NC2=O)ccc1O (stereo not given)  207 to 209 °C
3                     c1ccc2c(c1)oc1nnccc12  120 to 122 °C
4  CC(=O)Nc1ccccc1-c1ccc2c(c1)S(=O)(=O)NC(C1CCCCC1)N2 (stereo not given)  245 to 249 °C

Here's the next entry for you.
Please report the recorded melting point for Cc1cccc2c1N(Cc1c[nH]cn1)C(=O)C(NC(=O)Nc1cccc(-c3nnn[nH]3)c1)N=C2C1CCCCC1 (stereo not given) .
168 to 179 °C
